Quick list: MIC per entry.
# Test system: Staphylococcus aureus ATCC 19636 (Smith)
# test_details: microbe, parasite or virus in culture
# condition_parameters: Staphylococcus aureus, ATCC19636, 18 h, read-out: MIC, antibiotic susceptibility
property_label: MIC (µg/mL)

molecule	operator_symbol	measurement
C[C@@H](O)[C@H]1C(=O)N2C(C(=O)O)=C(SCCN=CN)C[C@H]12	≤	0.016
Cc1onc(-c2ccccc2)c1C(=O)N[C@@H]1C(=O)N2[C@@H]1SC(C)(C)[C@@H]2C(=O)O	=	0.25
CO/N=C(\C(=O)N[C@@H]1C(=O)N2C(C(=O)O)=C(CSc3nc(=O)c(=O)[nH]n3C)CS[C@H]12)c1csc(N)n1	=	4
CCC[C@@H]1C[C@@H](C(=O)N[C@@H]([C@H]2O[C@H](SC)[C@H](O)[C@@H](O)[C@H]2O)[C@H](C)Cl)N(C)C1	=	0.125
CO/N=C(\C(=O)N[C@@H]1C(=O)N2C(C(=O)[O-])=C(C[N+]3(C)CCCC3)CS[C@H]12)c1csc(N)n1 [Cefepime]	=	2

---

Quick list: MIC per entry.
# Test system: Staphylococcus aureus ATCC 29213
# test_details: microbe, parasite or virus in culture
# condition_parameters: Staphylococcus aureus, ATCC29213, 18 h, read-out: MIC, antibiotic susceptibility, ATCC 29213; CLSI M7-A10; unit inferred

molecule	MIC
C[C@H]1COc2c(N3CCN(C)CC3)c(F)cc3c(=O)c(C(=O)O)cn1c23	0.125 to 0.25 µg/mL
CC(=O)NC[C@H]1CN(c2ccc(N3CCOCC3)c(F)c2)C(=O)O1	2 to 4 µg/mL
CN[C@H](CC(C)C)C(=O)N[C@H]1C(=O)N[C@@H](CC(N)=O)C(=O)N[C@H]2C(=O)N[C@H]3C(=O)N[C@H](C(=O)N[C@H](C(=O)O)c4cc(O)cc(O)c4-c4cc3ccc4O)[C@H](O)c3ccc(c(Cl)c3)Oc3cc2cc(c3O[C@@H]2O[C@H](CO)[C@@H](O)[C@H](O)[C@H]2O[C@H]2C[C@](C)(N)[C@H](O)[C@H](C)O2)Oc2ccc(cc2Cl)[C@H]1O	0.5 to 1 µg/mL
C[C@@H](O)[C@H]1C(=O)N2C(C(=O)O)=C(SCCN=CN)C[C@H]12	0.016 to 0.031 µg/mL
CO/N=C(\C(=O)N[C@@H]1C(=O)N2C(C(=O)[O-])=C(C[N+]3(C)CCCC3)CS[C@H]12)c1csc(N)n1 [Cefepime]	2 to 4 µg/mL
CCC[C@@H]1C[C@@H](C(=O)N[C@@H]([C@H]2O[C@H](SC)[C@H](O)[C@@H](O)[C@H]2O)[C@H](C)Cl)N(C)C1	0.125 µg/mL
C/C(=C\C(=O)OCCCCCCCCC(=O)O)C[C@@H]1OC[C@H](C[C@@H]2O[C@H]2[C@@H](C)[C@H](C)O)[C@@H](O)[C@H]1O	0.25 to 2 µg/mL
C[C@@H](O)[C@H]1C(=O)N2C(C(=O)O)=C(S[C@@H]3CN[C@H](C(=O)N(C)C)C3)[C@H](C)[C@H]12	0.0625 µg/mL
CC[C@H]1OC(=O)[C@H](C)[C@@H](O[C@H]2C[C@@](C)(OC)[C@@H](O)[C@H](C)O2)[C@H](C)[C@@H](O[C@@H]2O[C@H](C)C[C@H](N(C)C)[C@H]2O)[C@](C)(O)C[C@@H](C)C(=O)[C@H](C)[C@@H](O)[C@]1(C)O	0.25 to 1 µg/mL
CCCCCCCCCC(=O)N[C@@H](Cc1c[nH]c2ccccc12)C(=O)N[C@H](CC(N)=O)C(=O)N[C@@H](CC(=O)O)C(=O)N[C@@H]1C(=O)NCC(=O)N[C@@H](CCCN)C(=O)N[C@@H](CC(=O)O)C(=O)N[C@H](C)C(=O)N[C@@H](CC(=O)O)C(=O)NCC(=O)N[C@H](CO)C(=O)N[C@@H]([C@H](C)CC(=O)O)C(=O)N[C@@H](CC(=O)c2ccccc2N)C(=O)O[C@@H]1C	0.125 to 0.5 µg/mL
Cc1onc(-c2ccccc2)c1C(=O)N[C@@H]1C(=O)N2[C@@H]1SC(C)(C)[C@@H]2C(=O)O	0.25 to 0.5 µg/mL
CO/N=C(\C(=O)N[C@@H]1C(=O)N2C(C(=O)O)=C(CSc3nc(=O)c(=O)[nH]n3C)CS[C@H]12)c1csc(N)n1	4 µg/mL
